// provenance: ChEMBL document CHEMBL1795269

Below: a set of entries, each annotated with reported logD.
- Protocol: Octanol-phosphate buffer partition coefficient, log D of the compound at pH 7.4
- Type: physicochemical

>>> assay_value("[125I]c1ccc(/C=C/c2ccc(-c3cccs3)s2)cc1")
3.31

Note to self: logD recorded for COc1ccc(/C=C/c2ccc(-c3ccc([125I])s3)s2)cc1 was 3.07

====

- Protocol: Displacement of [125I]-TZDM from amyloid beta 1 to 42 after 2 hrs by gamma counting
Define the label as Satisfied when Ki is strictly less than 0.4 nM and as Not satisfied in all remaining cases.

The examples below pair each entry with its known result.
>>> assigned_label("CN(C)c1ccc(/C=C/c2ccc(-c3ccc(Br)s3)s2)cc1")
"Satisfied"
>>> assigned_label("Brc1ccc(-c2ccc(/C=C/c3ccc(I)cc3)s2)s1")
"Not satisfied"
>>> assigned_label("Fc1ccc(/C=C/c2ccc(-c3ccc(Br)s3)s2)cc1")
"Not satisfied"

Here's an entry: CC(C)(C)c1ccc(/C=C/c2ccc(-c3ccc(I)s3)s2)cc1 . Is its Ki below 0.4 nM?
Not satisfied

Here's an entry: Cc1ccc(/C=C/c2ccc(-c3cccs3)s2)cc1 . Is its Ki below 0.4 nM?
Not satisfied

Here's an entry: O=[N+]([O-])c1ccc(/C=C/c2ccc(-c3ccc(Br)s3)s2)cc1 . Is its Ki below 0.4 nM?
Satisfied

Here's an entry: CC(C)(C)c1ccc(/C=C/c2ccc(-c3cccs3)s2)cc1 . Is its Ki below 0.4 nM?
Not satisfied

Here's an entry: Nc1ccc(/C=C/c2ccc(-c3cccs3)s2)cc1 . Is its Ki below 0.4 nM?
Not satisfied

Here's an entry: Brc1ccc(/C=C/c2ccc(-c3ccc(Br)s3)s2)cc1 . Is its Ki below 0.4 nM?
Satisfied

Here's an entry: Brc1ccc(/C=C/c2ccc(-c3ccc(I)s3)s2)cc1 . Is its Ki below 0.4 nM?
Satisfied

Here's an entry: Clc1ccc(/C=C/c2ccc(-c3ccc(Br)s3)s2)cc1 . Is its Ki below 0.4 nM?
Not satisfied

Here's an entry: Cc1ccc(/C=C/c2ccc(-c3ccc(I)s3)s2)cc1 . Is its Ki below 0.4 nM?
Not satisfied

====

- Protocol: Displacement of [125I]-TZDM from amyloid beta 1 to 42 after 2 hrs by gamma counting
pKi: −log10 of the molar value.
Classify by measured pKi: 1 if it is equal to or exceeds 9, 0 if it is smaller.

Check if pKi >= 9 (inclusive). Item: C(=C\c1ccc(-c2cccs2)s1)/c1ccccc1
0

Check if pKi >= 9 (inclusive). Item: Fc1ccc(/C=C/c2ccc(-c3cccs3)s2)cc1
0

Check if pKi >= 9 (inclusive). Item: Oc1ccc(/C=C/c2ccc(-c3ccc(Br)s3)s2)cc1
0

Check if pKi >= 9 (inclusive). Item: Cc1ccc(/C=C/c2ccc(-c3ccc(Br)s3)s2)cc1
1

====

- Protocol: Displacement of [125I]-TZDM from amyloid beta 1 to 42 after 2 hrs by gamma counting
Below: a set of entries, each annotated with reported Ki.
// note: answer is a bare numeric in nM

>>> assay_value("COc1ccc(/C=C/c2ccc(-c3ccc(Br)s3)s2)cc1")
0.72
>>> assay_value("COc1ccc(/C=C/c2ccc(-c3ccc(I)s3)s2)cc1")
0.3
>>> assay_value("CN(C)c1ccc(/C=C/c2ccc(-c3cccs3)s2)cc1")
0.73
>>> assay_value("Ic1ccc(-c2ccc(/C=C/c3ccccc3)s2)s1")
0.24
>>> assay_value("CC(C)(C)c1ccc(/C=C/c2ccc(-c3ccc(Br)s3)s2)cc1")
0.95

Note to self: Ki recorded for Brc1ccc(/C=C/c2ccc(-c3cccs3)s2)cc1 was 0.99
